# system_name: 5-hydroxytryptamine receptor 2A (Mus musculus) (UniProt P35363)
# Sequence (P35363 whole entry, looked up): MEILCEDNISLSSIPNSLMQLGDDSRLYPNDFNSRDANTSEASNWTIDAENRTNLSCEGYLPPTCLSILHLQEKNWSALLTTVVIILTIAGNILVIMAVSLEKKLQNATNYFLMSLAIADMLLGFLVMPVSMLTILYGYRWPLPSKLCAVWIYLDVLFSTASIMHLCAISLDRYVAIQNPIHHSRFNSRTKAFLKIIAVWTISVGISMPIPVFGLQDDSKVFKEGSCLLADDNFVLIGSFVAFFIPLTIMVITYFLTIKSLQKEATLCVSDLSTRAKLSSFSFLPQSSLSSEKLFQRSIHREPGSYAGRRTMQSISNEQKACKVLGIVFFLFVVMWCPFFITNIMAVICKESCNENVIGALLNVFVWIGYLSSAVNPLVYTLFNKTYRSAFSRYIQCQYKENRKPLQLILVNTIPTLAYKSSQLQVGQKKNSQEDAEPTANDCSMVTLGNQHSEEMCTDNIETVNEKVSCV
# method_description: mouse Htr2a agonists via beta-arrestin recruitment, primary screen, cell-based, luminescence (AID 624169);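 note: 0% = plate median of compound wells and 100% = 30 µM serotonin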
# condition_details: CHO-K1 mHTR2A beta-arrestin complementation, at 7.6 µM, active compounds read high, percent of 30 µM serotonin response
The whole screen tested about 360,000 compounds, of which about 2,400 (0.67%) were called active. Shown is part of a subset that was picked to be rich in actives.
readout: activation (%)
Please reply with the bare figure in % and do not write the unit itself.

>>> assay_value("COCCCN(C(=O)CSCc1ccc(C)cc1)c1c(N)n(Cc2ccccc2)c(=O)[nH]c1=O")
7.86
>>> assay_value("CCOC(=O)c1ccc(NC(=O)Cn2cnc3cc(C)c(C)cc32)cc1")
17.4

Next up:
Exercise: Requested field: activation. Item: "CCOC(=O)c1ccc(NC(=O)CCn2c(=O)oc3ccccc32)cc1"
Key: -5.94
